# Protocol summary: binders of probe aFSTL3 on microarray, primary screen, stem cell growth factor project, biochemical, small-molecule microarray, fluorescence 635/667 (AID 1064);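 further: measures binding of the biotinylated anti-FSTL3 antibody to printed compounds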
# Measurement conditions: higher = more signal
Cut-off -0.04 on composite z-score, inclusive. At or above means rule met; below means rule not met.

[[record]]
molecule = "CCCC[C@@H]1C[C@H]1[C@@H](NC(=O)c1ccco1)c1ccc(-c2ccccc2)cc1"
class_label = "rule not met"

[[record]]
molecule = "CC(C)CNC(=O)[C@@]1(Cc2ccccc2I)c2ccccc2C(=O)N(C2CCCCC2)[C@H]1c1ccc(CO)cc1"
class_label = "rule met"

[[record]]
molecule = "CCOC(=O)C[C@H]1[C@H](OC(=O)c2ccccc2-c2ccccc2)[C@@H](NC(=O)CC(C)C)c2cc(OCCCO)ccc2N1C(=O)Cc1ccc(OC)cc1"
class_label = "rule not met"

[[record]]
molecule = "C=CCN1C(=O)[C@@]2(CC=C)N=C(c3ccc(OCCCO)cc3)O[C@H]2c2ccccc21"
class_label = "rule met"

[[record]]
molecule = "COc1ccc(CCNC(=O)[C@@]2(Sc3ccc(C)cc3)CC(=O)N(C(C)C)[C@@H]2c2ccc(CO)cc2I)cc1"
class_label = "rule met"

[[record]]
molecule = "C=C(C)[C@@H]1CC=C(C(O)C2C=CC3C(=O)N(C)C(=O)C3N2Nc2ccccc2)CC1 (some centres undefined)"
class_label = "rule met"

[[record]]
molecule = "CC(C)C(O)C1C=CC2C(=O)N(c3ccccc3)C(=O)C2N1Nc1ccc([N+](=O)[O-])cc1 (centres undefined)"
class_label = "rule met"

[[record]]
molecule = "C=CCOC(=O)[C@H]1[C@@H]2C(=O)O[C@@H](c3ccccc3)[C@@H](c3ccccc3)N2[C@@H](c2ccc(OCCOC(=O)[C@H]3C[C@H]4C(=O)N[C@@H](CCCC[N+](C)(C)C)C(=O)N4[C@H]3c3ccc(O)cc3)cc2)[C@]12C(=O)Nc1ccc(I)cc12"
class_label = "rule not met"

[[record]]
molecule = "COc1cc2c(cc1OC)CN(C(=O)[C@@H]1[C@H]3C(=O)O[C@H](c4ccccc4)[C@H](c4ccccc4)N3[C@H](c3ccccc3OCCO)[C@@]13C(=O)Nc1ccc(C#CCCO)cc13)CC2"
class_label = "rule met"

[[record]]
molecule = "C[C@H]1NC(=O)[C@@]23C(=O)N[C@@H](Cc4ccccc4)C2[C@H](C)[C@@]2(C)O[C@H]2C3/C=C/C/C=C\\CNC(=O)[C@@H]2CCCN2C1=O (some centres undefined)"
class_label = "rule not met"

[[record]]
molecule = "COc1cc2c(cc1O)C(c1cccs1)N(C)CC2 (centres undefined)"
class_label = "rule not met"

[[record]]
molecule = "C=C(/C(=C/C[C@H](OC(C)=O)c1ccccc1OCCO)c1cnc2ccccc2c1)C(C)C"
class_label = "rule met"

[[record]]
molecule = "CC(C)C[C@@H]1NC(=O)[C@@H]2C[C@H](C(=O)O)[C@H](c3cccc(OCCO)c3)N2C1=O"
class_label = "rule met"

[[record]]
molecule = "COC(=O)C(CC#Cc1ccc2c(c1)[C@]1(C(=O)N2)[C@H](c2ccc(OCCO)cc2)N2[C@H](c3ccccc3)[C@H](c3ccccc3)OC(=O)[C@H]2[C@@H]1C(=O)Nc1nc2ccccc2s1)C(=O)OC"
class_label = "rule not met"


----------
# Protocol summary: E. coli DRC41 culture turbidity changes, primary screen, E. coli filamentation inducer project, strain DRC41, OD650, 48 h (AID 1152);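 further: E. coli MC1000 strain DRC41 lacking acrAB efflux pump and sulA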
# Measurement conditions: E. coli DRC41 (acrAB sulA), higher = more signal, called active from +8 up or from −8 down
Would you please tag the item 1 when its z-score is 0.5 or above, and -1 when it is below?

[[record]]
compound = "C=C(CCCC)/C(=C/C[C@@H](OC(C)=O)c1ccc(OCCO)cc1)c1cnc2ccccc2c1"
class_label = 1

[[record]]
compound = "O=C(NCCN1CCOCC1)C1N=C(c2ccc(OCCCO)cc2)N(c2ccccc2)O1 (stereo unspecified)"
class_label = 1

[[record]]
compound = "CCCCCN1CC=CC23O[C@@H]4/C=C\\CCC(C)OC(=O)C4[C@H]2C(=O)N(C(C)CO)[C@@H]3C1=O (stereo partly specified)"
class_label = 1

[[record]]
compound = "COc1ccccc1CN1C(=O)c2ccccc2[C@@H](C(=O)NC2CC2)[C@@H]1c1ccc(CO)cc1"
class_label = 1

[[record]]
compound = "CCc1cccc(NC(=O)O[C@H]2[C@H](OC(=O)Nc3ccccc3-c3ccccc3)[C@@H](OC(=O)Nc3ccccc3-c3ccccc3)[C@@H](OC)O[C@@H]2CO)c1"
class_label = -1

[[record]]
compound = "CN(C)C(=O)[C@]1(Cc2ccccc2N=[N+]=[N-])N=C(c2ccc(OCCCO)cc2)O[C@@H]1c1ccccc1N=[N+]=[N-]"
class_label = 1

[[record]]
compound = "O=C1NC(=O)C2C1C=CC(C(O)c1cccs1)N2Nc1ccc(Cl)cc1Cl (stereo unspecified)"
class_label = -1

[[record]]
compound = "CC1(C)[C@@H]2CC(C(O)C3C=CC4C(=O)N(Cc5ccccc5)C(=O)C4N3n3cnnc3)=C[C@H]1C2 (stereo partly specified)"
class_label = -1

[[record]]
compound = "COC(=O)c1c(CC[C@@H](CO)NC(=O)NCCn2cc(C3(O)CCCC3)nn2)oc(C(C)=O)c1C(=O)OC"
class_label = -1

[[record]]
compound = "COc1ccc(CCNC(=O)[C@@]2(C)c3ccccc3C(=O)N(C(C)C)[C@H]2c2ccc(CO)cc2)cc1"
class_label = -1

[[record]]
compound = "[N-]=[N+]=NCc1ccccc1[C@@H]1OC(c2ccc(OCCCO)cc2)=N[C@]1(Cc1ccccc1)C(=O)NCC(O)CO (stereo partly specified)"
class_label = -1

[[record]]
compound = "COC(=O)C[C@H]1O[C@]2(C(=O)N(C)c3ccccc32)[C@@H](C)[C@@H]1[Si](C)(C)F"
class_label = 1

[[record]]
compound = "CCCC[C@H]1OB(O)C[C@H]2C1=C(COC)Cn1c(=O)n(-c3ccccc3)c(=O)n12"
class_label = 1

[[record]]
compound = "CN(C)CCCCCCNC(=O)[C@H]1C[C@H]2C(=O)N[C@@H](CCCCN)C(=O)N2[C@H]1c1cccc(OCCO)c1"
class_label = -1

